These measurements were taken from PubChem BioAssay (Tox21).

METHOD DESCRIPTION: qHTS assay to identify small molecule that activate the aryl hydrocarbon receptor (AhR) signaling pathway - cell viability counter screen (AID 743086); also: nearly all actives have a fitted effect of over 45% in size
MEASUREMENT PARAMETERS: HepG2-AhR-luc viability, CellTiter-Fluor, 24 h; series mostly up to 70.3 µM
Results filed as inconclusive are left out. Activity calls are given as the source filed them. Calls follow the shape of the dose curve; as a rule, active = well fitted cell-killing curve with a large enough effect in the repeat runs; inconclusive = weak or mixed curves, or effect the other way; inactive = flat fitted curve, though single readings scatter.
Hi! Could you answer with just one of these? 1.0 (active), 0.0 (inactive)

CCCCCCCCC=O
0.0
CC1(C)SC(C)(C)SC(C)(C)S1
0.0
NC(CS)C(=O)O (centres undefined)
0.0

Tell me the recorded outcome of this test for OC/C=C/c1ccccc1 . 0.0

// outcome(item) with item = Cc1onc(-c2ccccc2)c1-c1ccc(S(N)(=O)=O)cc1 0.0

What was the test verdict on C=CC(=O)OCCCCCC ? 0.0

Call for entry CCCC(=O)O[C@]1(C(=O)CCl)[C@@H](C)C[C@H]2[C@@H]3CCC4=CC(=O)C=C[C@]4(C)[C@@]3(F)C(=O)C[C@@]21C : 0.0

How did this test come out for COC(=O)C1=C(C)NC(C)=C(C(=O)OCC(C)=O)C1c1ccccc1[N+](=O)[O-] (centres undefined) ? 1.0

How did this test come out for CC(C)c1ccc2oc3nc(N)c(C(=O)O)cc3c(=O)c2c1 ? 0.0

Status in this test for COc1cc(CCC(C)=O)ccc1O ? 0.0

###

SYSTEM TESTED: Nuclear receptor subfamily 1 group I member 3 (Homo sapiens)
METHOD DESCRIPTION: qHTS assay to identify small molecule antagonists of the constitutive androstane receptor (CAR) signaling pathway (AID 1224838);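 also: HepG2 cells stably expressing hCAR with CYP2B6 luciferase reporter stimulated by CITCO; % is scaled to controls: 0 for no effect and ±100 for the full control effect; nearly all actives have a fitted effect of over 40% in size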
MEASUREMENT PARAMETERS: HepG2-CYP2B6-hCAR luciferase, CITCO-stimulated, 24 h; series mostly up to 92.4 µM
Inconclusive results are not listed. The source made the active and inactive calls. Calls come from the whole dose curve; as a rule, active = well fitted inhibition curve with a large enough effect in the repeat runs; inconclusive = weak or mixed curves, or effect the other way; inactive = no such curve, though single readings can be large or run the other way.
REPORTED ENDPOINT: activity, negative = inhibition

Please review the following examples before continuing.
OC1OC[C@@H](O)[C@H](O)[C@H]1O (some centres not stated)
inactive
C=C(C)C(=O)NCCC[N+](C)(C)C
inactive
CN(C)CCn1nnnc1SCC1=C(C(=O)O)N2C(=O)[C@@H](NC(=O)Cc3csc(N)n3)[C@H]2SC1
inactive
FC(F)(F)C(F)(F)C(F)(F)C(F)(F)C(F)(F)C(F)(F)C(F)(F)C(F)(F)C(F)(F)C(F)(F)F
41.9% [at 8.39 µM] (inactive)
CCCCCCCCN(C)CCCCCCCC
inactive

Quick batch: activity, negative = inhibition for everything below.
1. NC(=S)Nc1cccc2ccccc12
2. CC(O)CN(CCCN(C)C)CCCN(C)C (configuration not stated)

1. 3.74% [at 8.39 µM] (inactive)
2. inactive

Record activity, negative = inhibition for all entries; do not skip any.
1. NC(=O)Nc1nc2ccccc2[nH]1
2. Cc1c(F)cc2c(=O)c(C(=O)O)cn3c2c1CCC3C (configuration not stated)
3. Fc1ccccc1-c1ccccc1
4. CCN1CCN(c2cc3c(cc2F)c(=O)c(C(=O)O)cn3C2CC2)CC1
5. CCO[Si](C)(OCC)OCC

["inactive", "inactive", "inactive", "inactive", "inactive"]

###

METHOD DESCRIPTION: A CellTox Green Cytotoxicity Assay to monitor cytotoxicity in HEK293 cells - 16 hour (AID 1224888); also: % is scaled to controls: 0 for no effect and ±100 for the full control effect; nearly all actives have a fitted effect of over 35% in size
MEASUREMENT PARAMETERS: CellTox Green fluorescence; series mostly up to 76.8 µM
Inconclusive results are not listed. Activity calls are given as the source filed them. Calls come from the whole dose curve; as a rule, active = well fitted activation curve with a large enough effect in the repeat runs; inconclusive = weak or mixed curves; inactive = flat fitted curve, though single readings scatter.
REPORTED ENDPOINT: activity change

CN(C)CCOC(c1ccc(Cl)cc1)c1ccccn1 (stereo unspecified)
inactive
Nc1ccc2cc(S(=O)(=O)O)ccc2c1
inactive
O=[N+]([O-])c1ccc(CCO)cc1
inactive
CCN1CCCC1CNC(=O)c1cc(S(N)(=O)=O)ccc1OC (stereo unspecified)
inactive
NC1CCN(c2cccc(Cl)n2)CC1
inactive
CCCC(C)CO (stereo unspecified)
inactive

Need activity change for each of these compounds.
1. CCC(C)(C)C1CCC(OC)CC1 (stereo unspecified)
2. C/C=C1\C(=O)C[C@H]2[C@@H]3CCC4=CC(=O)CC[C@]4(C)[C@H]3CC[C@]12C
3. C=CCSCC1Nc2cc(Cl)c(S(N)(=O)=O)cc2S(=O)(=O)N1 (stereo unspecified)
4. OC1OC[C@@H](O)[C@H](O)[C@H]1O (stereo partly specified)

inactive
inactive
inactive
inactive

Below is a list of compounds. For each, state its recorded activity change.
1. CC(C)(C)N(CCO)CCO
2. NS(=O)(=O)c1cc2c(cc1C(F)(F)F)NC(Cc1ccccc1)NS2(=O)=O (stereo unspecified)
3. Cn1cnc2c(=O)[nH]c(N)nc21

["inactive", "inactive", "inactive"]

State the recorded activity change for every item in the following list.
1. COc1ccc(N=[N+]([O-])c2ccc(OC)cc2)cc1
2. C[C@H]1O[C@@H](n2cc(F)c(=O)[nH]c2=O)[C@H](O)[C@@H]1O
3. O=c1[nH]c(=O)n([C@H]2O[C@H](CO)[C@@H](O)[C@@H]2O)cc1/C=C\Br
4. Nc1cc(C(Cl)=C(Cl)Cl)c(S(N)(=O)=O)cc1S(N)(=O)=O
5. CCCCOCC(C)OCC(C)O (stereo unspecified)

["inactive", "inactive", "inactive", "inactive", "inactive"]

Batch: activity change for all items listed.
1. Nc1[nH]c(=O)ncc1F
2. O=C1CC2(CCCC2)CC(=O)N1
3. CNC(=O)c1c(I)c(NC(=O)CCCCC(=O)Nc2c(I)c(C(=O)O)c(I)c(C(=O)NC)c2I)c(I)c(C(=O)O)c1I
4. CC1(C)OC(=O)Nc2ccc(Br)cc21
5. CC1=CC(C)C(C=O)C(C)C1 (stereo unspecified)
6. CCC(=O)Nc1cccc(N)c1
7. O=C1C(CCS(=O)c2ccccc2)C(=O)N(c2ccccc2)N1c1ccccc1 (stereo unspecified)

inactive
inactive
inactive
inactive
inactive
inactive
inactive

###

METHOD DESCRIPTION: qHTS assay for small molecule activators of the heat shock response signaling pathway - cell viability counter screen (AID 743209); also: % is scaled to controls: 0 for no effect and ±100 for the full control effect; nearly all actives have a fitted effect of over 50% in size
MEASUREMENT PARAMETERS: HSE-bla HeLa viability, CellTiter-Glo luminescence, 5 h; series mostly up to 62.6 µM
Results filed as inconclusive are left out. The source made the active and inactive calls. The call rests on the fitted dose curve; in most records, active means well fitted cell-killing curve with a large enough effect in the repeat runs; inconclusive means weak or mixed curves, or effect the other way; inactive means no such curve, though single readings can be large or run the other way.
REPORTED ENDPOINT: activity change, negative = cytotoxicity

CCn1c(=O)c2c(nc(/C=C/c3ccc(OC)c(OC)c3)n2C)n(CC)c1=O
inactive
O=C1C(CCS(=O)c2ccccc2)C(=O)N(c2ccccc2)N1c1ccccc1 (configuration not stated)
inactive
CC(C)=CC(=O)O
inactive
O=C(O)Cc1cc(I)c(Oc2cc(I)c(O)c(I)c2)c(I)c1
inactive

Hey, can you go through the list below and give me activity change, negative = cytotoxicity for every item?
1. C=CCOc1nc(OCC=C)nc(OCC=C)n1
2. O=[N+]([O-])c1ccc(Oc2ccc([N+](=O)[O-])cc2)cc1
3. CC(=O)N[C@@H](CCC(N)=O)C(=O)O
4. CCCc1ccc(N)cc1
5. Cn1ccc2cc3c(cc21)CCN3C(=O)Nc1cccnc1
6. Nc1nc2c(ncn2CCC(CO)CO)c(=O)[nH]1
7. C=CC(=O)OCCCCCC

1: inactive; 2: inactive; 3: inactive; 4: inactive; 5: inactive; 6: inactive; 7: inactive

###

METHOD DESCRIPTION: qHTS assay to identify small molecule antagonists of the androgen receptor (AR) signaling pathway using the MDA cell line - cell viability counter screen (AID 743041; also: % is scaled to controls: 0 for no effect and ±100 for the full control effect; nearly all actives have a fitted effect of over 45% in size)
MEASUREMENT PARAMETERS: MDA-kb2 viability, CellTiter-Fluor, 16 h, cells co-treated with R1881 androgen agonist; series mostly up to 70.3 µM
Inconclusive results are not listed. Activity calls are given as the source filed them. Calls come from the whole dose curve; as a rule, active = well fitted cell-killing curve with a large enough effect in the repeat runs; inconclusive = weak or mixed curves, or effect the other way; inactive = flat fitted curve, though single readings scatter.
REPORTED ENDPOINT: viability change, negative = cytotoxic

CCCOCC(C)OCC(C)O (stereo not drawn)
inactive
C=C(C)C(=O)NCCC[N+](C)(C)C
inactive
CC(C)[C@H](N)C(=O)OCCOCn1cnc2c(=O)[nH]c(N)nc21
inactive

###

METHOD DESCRIPTION: qHTS assay to identify small molecule agonists of the TGF-beta/Smad signaling pathway (AID 1346859); also: % is scaled to controls: 0 for no effect and ±100 for the full control effect
MEASUREMENT PARAMETERS: SBE-bla HEK293T, TGF-beta/Smad beta-lactamase reporter, 5 h; series mostly up to 76.8 µM
Results filed as inconclusive are left out. The source made the active and inactive calls. Calls come from the whole dose curve; as a rule, active = well fitted activation curve with a large enough effect in the signal ratio in the repeat runs (not every such curve was filed as active); inconclusive = weak or mixed curves; inactive = flat fitted curve, though single readings scatter; the % refers to the signal ratio.
REPORTED ENDPOINT: activation

CNC(=O)c1c(I)c(NC(=O)CCCCC(=O)Nc2c(I)c(C(=O)O)c(I)c(C(=O)NC)c2I)c(I)c(C(=O)O)c1I
inactive
CC1CCN(CCCC(=O)c2ccc(F)cc2)CC1
inactive
CO
inactive

###

METHOD DESCRIPTION: qHTS assay for small molecules that induce genotoxicity in human embryonic kidney cells expressing luciferase-tagged ATAD5 (AID 651632); also: nearly all actives have a fitted effect of over 15% in size; as to activation: % is scaled to controls: 0 for no effect and ±100 for the full control effect
MEASUREMENT PARAMETERS: HEK293T ATAD5-luciferase induction, 16 h; series mostly up to 83.3 µM
Records with an inconclusive call do not appear. Activity calls are given as the source filed them. Calls come from the whole dose curve; as a rule, active = well fitted activation curve with a large enough effect in the repeat runs; inconclusive = weak or mixed curves; inactive = no such curve, though single readings can be large or run the other way.
Your reply should match one of these outcome classes. class 1 for active, class 0 for inactive

For orientation, consider the following solved cases.
CC(C)COC(=O)C(C)C
class 0
C=C(C)C(=O)NCCCN(C)C
class 0
CN(C)N=Nc1ccccc1
class 0

Test call, this molecule: OCc1ccccn1 class 0

Tell me the recorded outcome of this test for CC(=O)OC(C)(C)C . class 0

Recorded test call requested for C=C(C)C(=O)OCCC(C)OC(=O)C(=C)C (stereo not drawn) class 0

Per the records of this test, what outcome belongs to NC1CCN(c2cccc(Cl)n2)CC1 ? class 0

Dear colleague, could you share the recorded outcome for OC/C=C/c1ccccc1 when you have a moment? class 0

Dear colleague, could you share the recorded outcome for CC(C)c1ccc2oc3nc(N)c(C(=O)O)cc3c(=O)c2c1 when you have a moment? class 1

Hi, sorry to bother you, what did the test record for CCN1CCN(c2cc3c(cc2F)c(=O)c(C(=O)O)cn3C2CC2)CC1 ? class 0

Status in this test for O=C(O)Cc1cc(I)c(Oc2cc(I)c(O)c(I)c2)c(I)c1 ? class 0

Recorded call for CC(O)CN(CCCN(C)C)CCCN(C)C (stereo not drawn) ? class 0

Outcome? CN(C)C(=O)C(CCN1CCC(O)(c2ccc(Cl)cc2)CC1)(c1ccccc1)c1ccccc1 class 0
